Source: PubChem BioAssay AID2315

assay: A qHTS for Small Molecule Inhibitors of Shiga Toxin; conditions: Vero cells, Shiga toxin protein synthesis inhibition reporter; at 38.7 µM, hits give high values; further: 0% is about no effect
The whole screen tested about 290,000 compounds, of which about 27,000 (9.3%) were called active. For the sample, actives were picked, then their nearest neighbours and some compounds at random.
Value kind: inhibition (%)
Report the value in % with no unit label.

Could you share which inhibition value was measured for C=CCc1cccc2cc(C(=O)OCC)c(=O)oc12 ?
2.24

Follow-up item: O=C(c1ccc(F)cc1)n1cc(C(=S)N2CCOCC2)c2ccccc21
-2.34

Follow-up item: Cc1ccccc1NC(=O)N1CCCC1C(=O)NCc1ccccc1 (stereo unspecified)
-8.06

Follow-up item: CCCOC(=O)c1cc2ccccc2oc1=O
18.4

Follow-up item: O=C(Cn1c(=S)nc2ccccn21)N1CCc2ccccc2C1
38.4

Follow-up item: Cc1ccc(O)c(NC(=O)COc2cc(C)ccc2C)c1
-27.8

* * *

Please provide measured inhibition for the entries that follow.
assay: A qHTS for Small Molecule Inhibitors of Shiga Toxin; conditions: Vero cells, Shiga toxin protein synthesis inhibition reporter; at 38.7 µM, hits give high values; further: 0% is about no effect
Out of some 290,000 compounds screened, about 27,000 (9.3%) were called active. The list comes from a sample in which actives are over-represented; it also holds close analogues and randomly drawn compounds.

Could you share which inhibition value was measured for COc1ccccc1-c1cnn2c(N3CCOCC3)cc(C)nc12 ?
87.6% (active)

Follow-up item: CN(c1ccc(C(=O)NCCC2=CCCCC2)cc1)S(C)(=O)=O
89.4% (active)

Follow-up item: Nc1nc(Nc2ccccc2F)nc(NC2CCCCC2)c1[N+](=O)[O-]
2.97% (inactive)

Follow-up item: O=C(Nc1ccc(-c2nnc(-c3ccccc3)o2)cc1)C1CCCO1 (centres undefined)
93.5% (active)

Follow-up item: Cn1nnc2cc(C(=O)NCCC3=CCCCC3)ccc21
64.2% (active)

Follow-up item: Cc1cnc(C(=O)N2CCCC(N3CCN(c4ccccc4F)CC3)C2)cn1 (centres undefined)
-6.28% (inactive)

Follow-up item: O=C(Nc1cccc(-c2nnc(-c3ccccc3)o2)c1)C1CCCO1 (centres undefined)
85% (active)

Follow-up item: CC(C(=O)N=Nc1c(O)n(C)c2ccc(Br)cc12)n1cnc2ccccc2c1=O (centres undefined)
-6.1% (inactive)

Follow-up item: COc1cc(C2C3=C(CCCC3=O)OC3=C2C(=O)CCC3)ccc1OCC(=O)Nc1ccccc1
37.9% (inactive)

Follow-up item: Cn1nc(-c2ccccc2)c(-c2nc(-c3ccc(Cl)cc3)no2)c1Cl
-16% (inactive)

Follow-up item: O=C(Cc1ccc(F)cc1)NC1CCCC1
-4.53% (inactive)

Follow-up item: CCn1c(SCc2ccccc2)nc2cc(OC)c(OC)cc2c1=O
-6.05% (inactive)

Follow-up item: CCc1nnc(NS(=O)(=O)c2ccc(NC(=S)NC(=O)c3cccs3)cc2)s1
-15.7% (inactive)

Follow-up item: COc1ccccc1NC(=O)C1CCCN(c2cc(C)nc3ncnn23)C1 (centres undefined)
2.25% (inactive)

Follow-up item: COC(=O)Cc1ccc(N(Cc2ccccc2F)S(=O)(=O)c2ccc(Br)cc2)cc1
9.28% (inactive)

Follow-up item: O=C(Cn1nc(C(F)(F)F)c2c1CCC2)NCc1ccc(F)cc1
-2.3% (inactive)

Follow-up item: COc1ccc(C2c3[nH]c4ccccc4c3C[C@H]3C(=O)N(CC(C)C)CC(=O)N23)c(OC)c1 (some centres undefined)
-6.17% (inactive)

Follow-up item: O=C(COC(=O)Cn1cnc2ccccc21)Nc1cccc2c1C(=O)c1ccccc1C2=O
-13.5% (inactive)

Follow-up item: O=C(Nc1cccc(F)c1)c1coc(=O)c(Br)c1
-10.4% (inactive)

Follow-up item: O=c1ccc(-c2ccc(S(=O)(=O)Nc3ccccc3)o2)n[nH]1
-5.64% (inactive)

Follow-up item: O=C1N/C(=C/c2cccn2-c2ccccc2)C(=O)N1c1cccc(Cl)c1
60.1% (active)

Follow-up item: CC(=O)Nc1ccc(S(=O)(=O)Nc2nccc(/C=C/c3ccccc3F)n2)cc1
21.8% (inactive)

Follow-up item: O=C(O)c1ccc(N/N=C/c2ccc3ncccc3c2)cc1
45.9% (active)

Follow-up item: O=C(Cc1nn[nH]n1)NCCC1=CCCCC1
-11.6% (inactive)

Follow-up item: O=C(O)c1ccc(N/N=C/c2cn(-c3ccccc3)nc2-c2cccs2)cc1
46.3% (inactive)

Follow-up item: Cc1ccccc1NC(=O)CN1C(=O)N/C(=C\c2cccn2-c2cccc(C(=O)O)c2)C1=O
-13.8% (inactive)

Follow-up item: O=C(O)c1ccc(/C=N/Nc2nc(N3CCCCC3)nc(N3CCCCC3)n2)cc1
-6.74% (inactive)

Follow-up item: Cc1ccc(S(=O)(=O)N2CC(C)N(S(C)(=O)=O)C2)cc1 (centres undefined)
-4.24% (inactive)

Follow-up item: CC(C)=CCCC1(C)C=Cc2c(ccc3c2[nH]c2cc(O)c(C)cc23)O1 (centres undefined)
23.1% (inactive)

Follow-up item: COc1cc(OC)cc(C(=O)NCCCn2ccnc2)c1
13.8% (inactive)

Follow-up item: O=C(CC1CCCCC1)NCc1ccccc1
107% (active)

Follow-up item: COc1ccccc1C1/C(=C(/O)c2ccc(OC(C)C)cc2)C(=O)C(=O)N1c1cc(C)on1 (centres undefined)
-22.9% (inactive)

Follow-up item: O=C(Nc1cccc(F)c1)[C@@H]1CCCN1
3.23% (inactive)

Follow-up item: CC(=O)Nc1ccc(NC(=O)CC2CCCC2)cc1
48.2% (active)

Follow-up item: Cc1ccc2cc(/C=N/NC(=O)[C@@H]3CCCN3)c(Cl)nc2c1
54.3% (active)

Follow-up item: O=C(COC(=O)c1ccccc1)Nc1ccccc1Sc1ccccc1
-9.76% (inactive)

Follow-up item: O=C(NCc1ccccc1)C(c1cccnc1)N(C(=O)c1csnn1)c1ccc(F)cc1 (centres undefined)
1.7% (inactive)

Follow-up item: Cc1cc(C)nc(NS(=O)(=O)c2ccc(N/C=C\C(=O)c3cccs3)cc2)n1
97.2% (active)

Follow-up item: Cc1ccccc1CN1CCNC(=O)C1CC(=O)NCCC1=CCCCC1 (centres undefined)
-8.04% (inactive)

Follow-up item: Cc1ccn2c(=O)c(C(=O)NCCC3=CCCCC3)c(O)nc2c1
0.166% (inactive)

Follow-up item: Cc1cccc(OCC(=O)NCCNC(=O)c2cccnc2)c1
-6.35% (inactive)

Follow-up item: COc1cccc(Cn2cc(/C=N/NC(=O)c3cc(O)cc(O)c3)c3ccccc32)c1
-3.1% (inactive)

Follow-up item: CCN(CC)S(=O)(=O)c1ccc(N2CCN(C)CC2)c(NC(=O)Nc2ccccc2F)c1
19.8% (inactive)

Follow-up item: CCOC(=O)/C(C#N)=C/c1ccc(OCC(=O)Nc2ccccc2)c(OC)c1
70.9% (active)
